Attribution: paper PMC7619385

Target: LmxCLK1 (Leishmania mexicana)
Assay: biochemical
Format: binding
Entries annotated with measured ΔTm Average
Numbers only; they are read as °C.

CN(C)CCCn1cc(C2=C(c3c[nH]c4ccccc34)C(=O)NC2=O)c2ccccc21 [GF109203X]	0.2
Nc1nc(N)c2nc(-c3cccc(O)c3)c(-c3cccc(O)c3)nc2n1	1.5
O=C(/C=C/c1ccc2ccccc2n1)c1ccncc1	0.1
COc1cc(Nc2ncc(F)c(Nc3ccc4c(n3)NC(=O)C(C)(C)O4)n2)cc(OC)c1OC	0.4
Cc1[nH]nc2ccc(-c3cncc(OC[C@@H](N)Cc4ccccc4)c3)cc12	0.7
CN1CCC(c2c(O)cc(O)c3c(=O)cc(-c4ccccc4Cl)oc23)C1CO (centres unmarked)	0.3

--- query ---
Quick check: ΔTm Average on LmxCLK1 (Leishmania mexicana), item Cc1ccccc1CN1C(=O)C2=C(CCN(Cc3ccccc3)C2)N2CCN=C12 ?
0.2

---

Target: UniProt:E9AMP2
Sequence (E9AMP2 1-422): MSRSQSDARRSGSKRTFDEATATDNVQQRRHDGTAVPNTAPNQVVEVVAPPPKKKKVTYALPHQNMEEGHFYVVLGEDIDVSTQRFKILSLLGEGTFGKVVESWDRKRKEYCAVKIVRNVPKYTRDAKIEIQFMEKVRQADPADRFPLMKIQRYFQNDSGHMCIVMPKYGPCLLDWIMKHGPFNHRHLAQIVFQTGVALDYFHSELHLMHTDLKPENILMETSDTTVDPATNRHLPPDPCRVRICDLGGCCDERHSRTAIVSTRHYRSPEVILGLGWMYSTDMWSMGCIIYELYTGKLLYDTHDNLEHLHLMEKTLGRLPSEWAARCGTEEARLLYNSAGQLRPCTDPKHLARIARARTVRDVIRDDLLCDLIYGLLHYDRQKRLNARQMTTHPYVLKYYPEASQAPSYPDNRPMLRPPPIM
Experiment: biochemical
Type: binding
Conditions: DSF, 10 µM compound, 2 µM LmxCLK1, mean of two runs
Entries annotated with measured ΔTm Average
Numbers only; they are read as °C.

Cl.O=S(=O)(c1cccc2cnccc12)N1CCCNCC1 [Fasudil (HA-1077) HCl]	0.7

Would you kindly share the measured ΔTm Average for Cc1cn(-c2cc(NC(=O)c3ccc(C)c(Nc4nccc(-c5cccnc5)n4)c3)cc(C(F)(F)F)c2)cn1 [Nilotinib (AMN-107)] ?
0.0

Would you kindly share the measured ΔTm Average for Cl.Cl.Clc1ccc(Nc2nnc(Cc3ccncc3)c3ccccc23)cc1 [Vatalanib (PTK787) 2HCl] ?
-0.1

Would you kindly share the measured ΔTm Average for O=c1cc(-c2cccc3c2Sc2ccccc2S3)oc(N2CCOCC2)c1 [KU-55933 (ATM Kinase Inhibitor)] ?
0.4

Would you kindly share the measured ΔTm Average for Cc1ccc(C(=O)Nc2cccc(C(F)(F)F)c2)cc1Nc1nc(-c2cccnc2)nc2c1cnn2C [NVP-BHG712] ?
-0.1

---

Molecular target: LmxCLK1 (Leishmania mexicana, UniProt E9AMP2)
Experiment: biochemical
Type: binding
Settings: DSF, 10 µM compound, 2 µM LmxCLK1, mean of two runs; read-out: ΔTm Average
Entries annotated with measured ΔTm at 10 µM
Numbers only; they are read as °C.

NC(=O)c1ccc(N(C(N)=O)c2c(F)cccc2F)nc1-c1ccc(F)cc1F	0
Cn1cc(C2=C(c3ccc(Cl)cc3Cl)C(=O)NC2=O)c2ccccc21	0
CCN(CC)CCCCNc1ncc2cc(-c3cc(OC)cc(OC)c3)c(NC(=O)NC(C)(C)C)nc2n1	0
Cn1c(=O)c(F)c(Nc2ccc(I)cc2F)c2c(=O)n(C[C@@H](O)CO)cnc21	-0.1
COCCOc1ccc2c(c1)ncn2-c1ccc2cccc(N3CCC(N)CC3)c2n1	0
C[C@@H]1COC(Nc2ccc3ncnc(Nc4ccc(OCc5nccs5)c(Cl)c4)c3c2)=N1	0.1

Would you kindly share the measured ΔTm at 10 µM for Cc1cc(Nc2cc(N3CCN(C)CC3)nc(/C=C/c3ccccc3)n2)n[nH]1 ?
0.2

Would you kindly share the measured ΔTm at 10 µM for C[C@H]1[C@H](C)CC[C@]2(C(=O)O)CC[C@]3(C)C(=CC[C@@H]4[C@@]5(C)C[C@@H](O)[C@H](O)[C@@](C)(CO)[C@@H]5CC[C@]43C)[C@H]12 ?
0.2
